pEC50 overview
# target or test system: T1, Qβ (RNA bacteriophage Qbeta, UniProt P03615 2-133)
# T1 construct: The description says it is a VLP of RNA bacteriophage Qbeta; also called Qbeta; VLP of RNA bacteriophage Qbeta
# T1 sequence: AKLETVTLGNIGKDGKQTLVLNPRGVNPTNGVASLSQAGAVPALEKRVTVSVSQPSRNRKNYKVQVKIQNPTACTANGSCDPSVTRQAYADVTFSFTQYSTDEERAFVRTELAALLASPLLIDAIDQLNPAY
# assay text: ELISA, Qβ coated, purified IgG2; range of concentrations of half-maximal binding
pEC50: −log10 of the molar value.

binder: Qb#8 whole IgG2 (antibody, V domains shown, domain: γ2 heavy chain constant region; also called Qβ#8 IgG2; pCB15-Qb#8-IgG2 product; not shown: human κ light chain constant region (vector pCMV-LC)) VH: QVQLQESGGGWVQSGGSLRLSCAASGFSFSSYAMSWVRQAPGKGLEWVSAMSPIGGSTFYADSVKGRFTISRDNSKNTLFLQMNSLRAEDTAVYYCAKDAVVTAVGLGRYFDLWGRGTLVSVSS VL: ELVVTQEPSVSGAPGQSVTISCTGGSSNIGASYDVHWYKQLPGAAPILLIYANYIRPSGVPDRFSASKSGTSASLAITGLQAEDEADYYCQSYDSSLSGVVFGGGTKLTVLG
pEC50: 8.96 to 9.34
--
binder: Qb#5 whole IgG2 (antibody, V domains shown, domain: γ2 heavy chain constant region; also called Qβ#5 IgG2; pCB15-Qb#5-IgG2 product; not shown: human κ light chain constant region (vector pCMV-LC)) VH: EVQLVQSGPGLVKPSETLSLTCTVSGGSISSTSYSWGWIRQPPGKGLEWIATVSYSGRSYSNPSLKSRVTTSVDTSKNQFSLRLGSVTAADTAVYYCARLYYIWRSYHSGRFDYWGQGTLVPVSS VL: ELVLTQPPSVSGAPGQRVSISCTGSSSNIGARYDVHWYQQLPGTAPKLLIYGNTNRPSGVPDRFSGSKSGSSASLAITGLQAEDEADYYCQSYDRSLSGVVFGGGTKLTVLG
pEC50: 10.27 to 10.68
--
binder: Qb#2 whole IgG2 (antibody, V domains shown, domain: γ2 heavy chain constant region; also called Qβ#2 IgG2; pCB15-Qb#2-IgG2 product) VH: EVQLLESGPGLVKPSETLSLTCTVSGGSISSGNYYWSWIRQTPEKGLEWLGYVHYTGSSKLNPSLKSRVTISVDTYTNQFSLSLSSMTAADTAVYYCARGKNCANDICYIGSWFDPWGQGTLVTVSS VL: ELGLTQPPSVSGAPGQRVTISCTGSSSNIGRFDVHWYQQLPGTAPKLLIYGNTNRPSGVPDRFSGSKSGSSASLAITGLQAEDEADYYCQSYDRSLSGVVFGGGTQLTVLG
pEC50: 10.25 to 10.60

The reported measurements were obtained from patent US20100292089A1.
